assay remarks: Mouse Activity and Screen Test Procedure (MAST): screen test (mice falling off inverted screen)
Type: in vivo, mouse (Swiss-Webster, male)
recorded conditions: IP, 30 mg/kg
Measured Screen Test Failure, listed per entry.
measured attribute: Screen Test Failure (%)

• Cc1ccc2scc(CCNc3ncnc4c3ncn4[C@@H]3O[C@H](CO)[C@@H](O)[C@H]3O)c2c1 = 0
• COc1ccc2c(CCNc3ncnc4c3ncn4[C@@H]3O[C@H](CO)[C@@H](O)[C@H]3O)csc2c1 = 11
• OC[C@H]1O[C@@H](n2cnc3c(NCCc4csc5ccc(Cl)cc45)ncnc32)[C@H](O)[C@@H]1O = 0
• OC[C@H]1O[C@@H](n2cnc3c(NCCc4csc5ccccc45)ncnc32)[C@H](O)[C@@H]1O [Example 2, N-[2-(benzo[b]thien-3-yl)ethyl]adenosine] = 0

###

target of assay: adenosine A2 receptor (Rattus norvegicus, UniProt P30543)
Sequence (P30543 whole entry): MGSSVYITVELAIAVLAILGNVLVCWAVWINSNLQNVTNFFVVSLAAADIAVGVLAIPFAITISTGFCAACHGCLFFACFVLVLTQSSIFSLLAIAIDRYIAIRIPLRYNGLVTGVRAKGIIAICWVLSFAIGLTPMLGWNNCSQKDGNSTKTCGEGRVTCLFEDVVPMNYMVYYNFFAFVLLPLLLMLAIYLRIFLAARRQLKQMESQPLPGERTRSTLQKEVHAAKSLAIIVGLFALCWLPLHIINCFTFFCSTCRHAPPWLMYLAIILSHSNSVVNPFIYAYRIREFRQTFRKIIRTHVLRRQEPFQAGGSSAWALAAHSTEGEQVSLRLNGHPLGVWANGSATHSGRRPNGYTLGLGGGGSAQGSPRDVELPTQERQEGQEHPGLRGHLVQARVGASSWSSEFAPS
pIC50: −log10 of the molar value.
measured attribute: pIC50

* OC[C@H]1O[C@@H](n2cnc3c(NCCc4csc5ccc(Cl)cc45)ncnc32)[C@H](O)[C@@H]1O | 6.26

###

assay remarks: Mouse Activity and Screen Test Procedure (MAST): inhibition of spontaneous locomotion (actophotometer) and overall dose rating
Assay type: in vivo, mouse (Swiss-Webster, male)
recorded conditions: IP, 10 mg/kg
Let's look at some compounds and their measured Inhibition of Mouse Locomotion Activity.
measured attribute: Inhibition of Mouse Locomotion Activity (%)

• OC[C@H]1O[C@@H](n2cnc3c(NCCc4csc5ccc(Cl)cc45)ncnc32)[C@H](O)[C@@H]1O = 54
• OC[C@H]1O[C@@H](n2cnc3c(NCCc4csc5ccccc45)ncnc32)[C@H](O)[C@@H]1O [Example 2, N-[2-(benzo[b]thien-3-yl)ethyl]adenosine] = 30
• COc1ccc2c(CCNc3ncnc4c3ncn4[C@@H]3O[C@H](CO)[C@@H](O)[C@H]3O)csc2c1 = 48
• Cc1ccc2scc(CCNc3ncnc4c3ncn4[C@@H]3O[C@H](CO)[C@@H](O)[C@H]3O)c2c1 = 63

###

target of assay: adenosine A1 receptor (Rattus norvegicus, UniProt P25099)
Construct: Whole brain minus cerebellum and brainstem from male Long Evans rats
Sequence (P25099 whole entry): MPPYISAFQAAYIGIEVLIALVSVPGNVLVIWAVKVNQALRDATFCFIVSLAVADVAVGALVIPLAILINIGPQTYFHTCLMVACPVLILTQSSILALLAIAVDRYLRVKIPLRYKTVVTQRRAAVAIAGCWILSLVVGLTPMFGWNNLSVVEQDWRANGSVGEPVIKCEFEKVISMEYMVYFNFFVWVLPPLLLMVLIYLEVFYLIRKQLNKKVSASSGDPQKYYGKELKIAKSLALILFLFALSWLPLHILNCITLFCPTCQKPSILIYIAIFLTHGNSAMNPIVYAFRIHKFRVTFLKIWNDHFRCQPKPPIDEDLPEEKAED
assay remarks: Adenosine Receptor Binding--A1 Receptor Affinity (RBA1), [3H]-CHA displacement, rat whole brain membranes
recorded conditions: 1.0 nM [3H]-CHA, pH 7.7, 25° C., read-out: RBA-1
measured attribute: IC50 (nM)

• OC[C@H]1O[C@@H](n2cnc3c(NCCc4csc5ccccc45)ncnc32)[C@H](O)[C@@H]1O [Example 2, N-[2-(benzo[b]thien-3-yl)ethyl]adenosine] = 12
• OC[C@H]1O[C@@H](n2cnc3c(NCCc4csc5ccc(Cl)cc45)ncnc32)[C@H](O)[C@@H]1O [Example 3] = 4.5
• Cc1ccc2scc(CCNc3ncnc4c3ncn4[C@@H]3O[C@H](CO)[C@@H](O)[C@H]3O)c2c1 [Example 4] = 4.3
• COc1ccc2c(CCNc3ncnc4c3ncn4[C@@H]3O[C@H](CO)[C@@H](O)[C@H]3O)csc2c1 [Example 1] = 7.7

###

Measured Screen Test Failure, listed per entry for reference.
assay remarks: Mouse Activity and Screen Test Procedure (MAST): screen test (mice falling off inverted screen)
Assay type: in vivo, mouse (Swiss-Webster, male)
recorded conditions: IP, 10 mg/kg
measured attribute: Screen Test Failure (%)

- OC[C@H]1O[C@@H](n2cnc3c(NCCc4csc5ccccc45)ncnc32)[C@H](O)[C@@H]1O [Example 2, N-[2-(benzo[b]thien-3-yl)ethyl]adenosine]: 11
- COc1ccc2c(CCNc3ncnc4c3ncn4[C@@H]3O[C@H](CO)[C@@H](O)[C@H]3O)csc2c1: 11
- OC[C@H]1O[C@@H](n2cnc3c(NCCc4csc5ccc(Cl)cc45)ncnc32)[C@H](O)[C@@H]1O: 0
- Cc1ccc2scc(CCNc3ncnc4c3ncn4[C@@H]3O[C@H](CO)[C@@H](O)[C@H]3O)c2c1: 0
